Where do these numbers come from? They come from the METLIN SMRT retention time set (Domingo-Almenara et al. 2019).

test: gradient 5% acetonitrile 3 min, to 50% in 2 min, to 85% in 15 min, held 3 min, 100 µL/min; details: column: Zorbax Extend-C18 2.1 x 50 mm; eluents: water / acetonitrile, 0.1% formic acid
Rule: yes (1) for RP-LC retention time not less than 800 s, no (0) for anything less.

As a guide, the following entries are already answered.
- Cn1c(=O)oc2cc(-c3noc(CNC(=O)Cc4ccccc4)n3)ccc21: no (0)
- COc1ccc(CCNC(=O)c2cc(C3CC3)[nH]n2)cc1OC: no (0)
- CCOc1ccc(CC(=O)NCC(=O)Nc2nc3ccccc3[nH]2)cc1OCC: no (0)
- O=C1c2cccc3cccc(c23)C(=O)N1CCCC(=O)N1CCc2ccccc21: yes (1)

In plain terms: is recorded RP-LC retention time at least 800 s for CN1CC(=O)N(CC(=O)Nc2ccc(-c3nc4ccccc4[nH]3)cc2)c2ccccc2C1=O ?
no (0)

Likewise for COc1cccc(NC(=O)[C@H]2[C@@H](c3cc(OC)c(OC)c(OC)c3)c3cc4c(cc3[C@@H](O)[C@@H]2CO)OCO4)c1 ?
no (0)

Entry to check: CS(=O)(=O)c1ccc(CC(=O)Nc2cccc3ccccc23)cc1
no (0)
